# Test system: 883617-216-R-J1-PDC complex spheroids, growth, % test/control
# Protocol text: Anticancer human tumor 883617-216-R-J1-PDC patient-derived bladder carcinoma cell line growth inhibition [AhR]
# Experimental setup: second compound 1 µM; first compound 0.316 µM; stronger effect = lower value
Here, each record is paired with measured viability, T/C data.

{"columns": ["Compound", "Target", "viability, T/C (%)"],
 "data": [
  ["O=C(c1cc(Cc2n[nH]c(=O)c3ccccc23)ccc1F)N1CCN(C(=O)C2CC2)CC1 + Cc1cncc(-c2nc(NCCc3c[nH]c4ccccc34)c3ncn(C(C)C)c3n2)c1", "883617-216-R-J1-PDC complex spheroids, growth, % test/control", 91],
  ["Nc1ccccc1NC(=O)c1ccc(CNC(=O)OCc2cccnc2)cc1 + Cc1ccccc1N=Nc1ccc(NC(=O)c2ccnn2C)c(C)c1", "883617-216-R-J1-PDC complex spheroids, growth, % test/control", 76.7],
  ["COc1cc(Nc2ncc3c(n2)-c2ccc(Cl)cc2C(c2c(F)cccc2OC)=NC3)ccc1C(=O)O + Cc1cncc(-c2nc(NCCc3c[nH]c4ccccc34)c3ncn(C(C)C)c3n2)c1", "883617-216-R-J1-PDC complex spheroids, growth, % test/control", 75.3]
]}

----------
# Tested on: 883617-216-R-J1-PDC complex spheroids, growth, % test/control
# Protocol text: Anticancer human tumor 883617-216-R-J1-PDC cell line growth inhibition [AhR];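 note: exposure lasted 7 days after dosing on day 3 of spheroid growth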
# Experimental setup: second compound 0.316 µM; first compound 1 µM; stronger effect = lower value
# Excerpt: Multicellular complex tumor spheroid response to aryl hydrocarbon receptor antagonists in combination with a variety of drugs and investigational agents in selected tumor cell lines […] Compounds. […] If the clinical Cmax for an agent had not been determined, the highest concentration tested was 10 microM (Table 1). […]
Quantity measured: viability, T/C (%)

{"columns": ["Compound", "Target", "Value unit", "Meas value"],
 "data": [
  ["Nc1ncn(C2CC(O)C(CO)O2)c(=O)n1 (configuration not stated) + Cc1ccccc1N=Nc1ccc(NC(=O)c2ccnn2C)c(C)c1", "883617-216-R-J1-PDC complex spheroids, growth, % test/control", "%", 76.6],
  ["O=C(c1cc(Cc2n[nH]c(=O)c3ccccc23)ccc1F)N1CCN(C(=O)C2CC2)CC1 + Cc1cncc(-c2nc(NCCc3c[nH]c4ccccc34)c3ncn(C(C)C)c3n2)c1", "883617-216-R-J1-PDC complex spheroids, growth, % test/control", "%", 78.9],
  ["CC(C)c1c(-c2ccccc2)nc2c(C#N)c[nH]n2c1=O + Cc1ccccc1N=Nc1ccc(NC(=O)c2ccnn2C)c(C)c1", "883617-216-R-J1-PDC complex spheroids, growth, % test/control", "%", 93.9],
  ["CC1COCCN1c1cc(-c2ccnn2C)c2ccnc(-c3ccn[nH]3)c2n1 (configuration not stated) + Cc1ccccc1N=Nc1ccc(NC(=O)c2ccnn2C)c(C)c1", "883617-216-R-J1-PDC complex spheroids, growth, % test/control", "%", 51.4],
  ["O=C(c1cc(Cc2n[nH]c(=O)c3ccccc23)ccc1F)N1CCN(C(=O)C2CC2)CC1 + CC(CO)NC(=O)c1cc(-c2ccc(Cl)cc2)nn(-c2cnn(C)c2)c1=O", "883617-216-R-J1-PDC complex spheroids, growth, % test/control", "%", 92.3],
  ["Nc1ccn(C2OC(CO)C(O)C2(F)F)c(=O)n1 (configuration not stated) + Cc1cncc(-c2nc(NCCc3c[nH]c4ccccc34)c3ncn(C(C)C)c3n2)c1", "883617-216-R-J1-PDC complex spheroids, growth, % test/control", "%", 38.4],
  ["CC(C)c1c(-c2ccccc2)nc2c(C#N)c[nH]n2c1=O + Cc1cncc(-c2nc(NCCc3c[nH]c4ccccc34)c3ncn(C(C)C)c3n2)c1", "883617-216-R-J1-PDC complex spheroids, growth, % test/control", "%", 97.6]
]}

----------
# System: 883617-216-R-J1-PDC complex spheroids, growth, % test/control
# Protocol text: Anticancer human tumor 883617-216-R-J1-PDC cell line growth inhibition [AhR];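 note: exposure lasted 7 days after dosing on day 3 of spheroid growth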
# Experimental setup: compound alone; run of 05/31/2022
pIC50: −log10 of the molar value.
Quantity measured: pIC50

{"columns": ["Compound", "Meas value"],
 "data": [
  ["CC(CO)NC(=O)c1cc(-c2ccc(Cl)cc2)nn(-c2cnn(C)c2)c1=O (stereo unspecified)", "< 5.00"]
]}

----------
# System: 883617-216-R-J1-PDC complex spheroids, growth, % test/control
# Protocol text: Anticancer human tumor 883617-216-R-J1-PDC cell line growth inhibition [AhR];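 note: exposure lasted 7 days after dosing on day 3 of spheroid growth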
# Experimental setup: curve of first compound; second compound 0.1 µM
# Description: Multicellular complex tumor spheroid response to aryl hydrocarbon receptor antagonists in combination with a variety of drugs and investigational agents in selected tumor cell lines […] Compounds. […] If the clinical Cmax for an agent had not been determined, the highest concentration tested was 10 microM (Table 1). […]
pIC50: −log10 of the molar value.
Here, each record is paired with measured pIC50 data.

{"columns": ["Molecule", "Result modifier", "pIC50"],
 "data": [
  ["Nc1ccccc1NC(=O)c1ccc(CNC(=O)OCc2cccnc2)cc1 + Cc1cncc(-c2nc(NCCc3c[nH]c4ccccc34)c3ncn(C(C)C)c3n2)c1", "=", 6.22],
  ["Nc1ncn(C2CC(O)C(CO)O2)c(=O)n1 (stereo unspecified) + Cc1cncc(-c2nc(NCCc3c[nH]c4ccccc34)c3ncn(C(C)C)c3n2)c1", "<", 6.00],
  ["NS(=O)(=O)OCC1CC(n2ccc3c(NC4CCc5ccccc54)ncnc32)CC1O (stereo unspecified) + CC(CO)NC(=O)c1cc(-c2ccc(Cl)cc2)nn(-c2cnn(C)c2)c1=O", "=", 6.10],
  ["COc1ccc([C@@H](O)c2cc(-c3ncnc4cc(N5CCOCC5)ccc34)c(F)cc2Cl)nn1 + CC(CO)NC(=O)c1cc(-c2ccc(Cl)cc2)nn(-c2cnn(C)c2)c1=O", "=", 5.04],
  ["COc1cc(Nc2ncc3c(n2)-c2ccc(Cl)cc2C(c2c(F)cccc2OC)=NC3)ccc1C(=O)O + Cc1cncc(-c2nc(NCCc3c[nH]c4ccccc34)c3ncn(C(C)C)c3n2)c1", "<", 5.00],
  ["CC1(C)CCC(CN2CCN(c3ccc(C(=O)NS(=O)(=O)c4ccc(NCC5CCOCC5)c([N+](=O)[O-])c4)c(Oc4cnc5[nH]ccc5c4)c3)CC2)=C(c2ccc(Cl)cc2)C1 + Cc1cncc(-c2nc(NCCc3c[nH]c4ccccc34)c3ncn(C(C)C)c3n2)c1", "=", 5.21],
  ["O=C(C=Cn1cnc(-c2cc(C(F)(F)F)cc(C(F)(F)F)c2)n1)NNc1cnccn1 + Cc1cncc(-c2nc(NCCc3c[nH]c4ccccc34)c3ncn(C(C)C)c3n2)c1", "=", 6.05],
  ["COc1cccc2c1C(=O)c1c(O)c3c(c(O)c1C2=O)CC(O)(C(=O)CO)CC3OC1CC(N)C(O)C(C)O1 (stereo unspecified) + CC(CO)NC(=O)c1cc(-c2ccc(Cl)cc2)nn(-c2cnn(C)c2)c1=O", "=", 6.57],
  ["CC1(C)CCC(CN2CCN(c3ccc(C(=O)NS(=O)(=O)c4ccc(NCC5CCOCC5)c([N+](=O)[O-])c4)c(Oc4cnc5[nH]ccc5c4)c3)CC2)=C(c2ccc(Cl)cc2)C1 + Cc1ccccc1N=Nc1ccc(NC(=O)c2ccnn2C)c(C)c1", "<", 5.00],
  ["Nc1ncn(C2CC(O)C(CO)O2)c(=O)n1 (stereo unspecified) + Cc1ccccc1N=Nc1ccc(NC(=O)c2ccnn2C)c(C)c1", "<", 6.00],
  ["CC1COCCN1c1cc(C2(S(C)(=N)=O)CC2)nc(-c2ccnc3[nH]ccc23)n1 (stereo unspecified) + Cc1cncc(-c2nc(NCCc3c[nH]c4ccccc34)c3ncn(C(C)C)c3n2)c1", "<", 5.00]
]}

----------
# System: 883617-216-R-J1-PDC complex spheroids, growth, % test/control
# Protocol text: Anticancer human tumor 883617-216-R-J1-PDC cell line growth inhibition [AhR]; active means viability on the fitted dose curve at most 10% of control; inactive means the rest;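 note: exposure lasted 7 days after dosing on day 3 of spheroid growth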
# Experimental setup: second compound 10 µM; first compound 0.3 µM
Outcome codes: 1 = active, -1 = inactive

{"columns": ["Compound", "Class assignment"],
 "data": [
  ["Nc1ncn(C2CC(O)C(CO)S2)c(=O)n1 (stereo unspecified) + Cc1cncc(-c2nc(NCCc3c[nH]c4ccccc34)c3ncn(C(C)C)c3n2)c1", -1],
  ["CCN(c1cc(-c2ccc(CN3CCOCC3)cc2)cc(C(=O)NCc2c(C)cc(C)[nH]c2=O)c1C)C1CCOCC1 + Cc1cncc(-c2nc(NCCc3c[nH]c4ccccc34)c3ncn(C(C)C)c3n2)c1", -1],
  ["CCN(c1cc(-c2ccc(CN3CCOCC3)cc2)cc(C(=O)NCc2c(C)cc(C)[nH]c2=O)c1C)C1CCOCC1 + CC(CO)NC(=O)c1cc(-c2ccc(Cl)cc2)nn(-c2cnn(C)c2)c1=O", -1],
  ["Nc1ncn(C2CC(O)C(CO)S2)c(=O)n1 (stereo unspecified) + CC(CO)NC(=O)c1cc(-c2ccc(Cl)cc2)nn(-c2cnn(C)c2)c1=O", -1],
  ["CC(C)CC(NC(=O)C(Cc1ccccc1)NC(=O)c1cnccn1)B(O)O (stereo unspecified) + CC(CO)NC(=O)c1cc(-c2ccc(Cl)cc2)nn(-c2cnn(C)c2)c1=O", 1],
  ["Nc1ncn(C2CC(O)C(CO)S2)c(=O)n1 (stereo unspecified) + Cc1ccccc1N=Nc1ccc(NC(=O)c2ccnn2C)c(C)c1", -1]
]}
